- tested-target: T1, Full-length cynomolgus monkey TIGIT on CHO-K1 cells (CHO-K1 cynomolgus monkey TIGIT) (cynomolgus monkey)
- T1 construct: NCBI XP_015300911.1
- T1 sequence (chain, as listed by the source limits assumed): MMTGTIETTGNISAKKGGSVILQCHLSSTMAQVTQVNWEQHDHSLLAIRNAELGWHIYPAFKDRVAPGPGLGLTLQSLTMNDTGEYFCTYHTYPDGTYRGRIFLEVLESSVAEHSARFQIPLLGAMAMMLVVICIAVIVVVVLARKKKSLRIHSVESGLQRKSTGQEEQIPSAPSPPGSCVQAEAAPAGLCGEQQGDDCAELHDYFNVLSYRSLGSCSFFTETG
- procedure-text: cell binding, CHO-K1 cynomolgus monkey TIGIT
readout-name: EC50 (nM)
Report only the number, with the unit nM understood.

Some binders with recorded EC50:
1. TIGIT-006-H3L2 (antibody, V domains shown, Humanized anti-TIGIT antibody) VH: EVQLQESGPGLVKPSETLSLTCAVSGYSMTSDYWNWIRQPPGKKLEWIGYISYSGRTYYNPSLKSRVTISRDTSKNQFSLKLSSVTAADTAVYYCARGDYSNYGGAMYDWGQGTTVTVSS VL: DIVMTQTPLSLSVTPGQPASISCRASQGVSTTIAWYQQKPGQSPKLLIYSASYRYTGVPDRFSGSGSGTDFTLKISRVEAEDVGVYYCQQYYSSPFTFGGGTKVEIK = 1.38
2. TIGIT-006-H2L1 (antibody, V domains shown, Humanized anti-TIGIT antibody) VH: EVQLQESGPGLVKPSETLSLTCAVSGYSMTSDYWNWIRQPPGKGLEWIGYISYSGRTYYNPSLKSRVTISRDTSKNQFSLKLSSVTAADTAVYYCARGDYSNYGGAMYDWGQGTTVTVSS VL: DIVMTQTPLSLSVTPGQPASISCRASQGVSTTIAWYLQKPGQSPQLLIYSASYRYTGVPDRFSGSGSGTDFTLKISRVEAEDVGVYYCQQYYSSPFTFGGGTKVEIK = 0.342

Now look at this one.
[in] Look up EC50: TIGIT-070-H3L3 (antibody, V domains shown, Humanized anti-TIGIT antibody) VH: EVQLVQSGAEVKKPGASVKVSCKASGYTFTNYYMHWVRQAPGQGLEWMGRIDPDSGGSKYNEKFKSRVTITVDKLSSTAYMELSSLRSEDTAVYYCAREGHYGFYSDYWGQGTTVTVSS VL: DIVMTQSPDSLAVSLGERATINCRVSENIYSYLAWYQQKPGQSPKLLVYNAKTLAEGVPDRFSGSGSGTDFTLTISSLQAEDVAVYYCQHHYGNPLTFGPGTKVDIK
[out] 0.0556
